- TARGET OF ASSAY: C5a receptor (Homo sapiens)
- ASSAY INFO: [125I]-C5a Radioligand Binding Assay (competition binding, differentiated U937 cells)
- PROTOCOL CONDITIONS: read-out: [125I]-C5a Binding % Inhibition 1 μM, test compound 1 μM; [125I]-C5a 0.05 nM; U937 cells; multiple values = duplicate experiments
# inhibition at 1 µM annotations
All answers are understood in %, so give the number only.

// inhibition at 1 µM (C5a receptor (Homo sapiens)) for CCc1cccc(CC)c1-c1cc(OC)c2c(n1)CCCC2N1CCc2ccc(OC)cc2C1 (stereo not shown) = 70

The observed inhibition at 1 µM for CCc1cccc(CC)c1-c1cc(OC)c2c(n1)CCCC2N1CCc2ccc(C(=O)OC)cc2C1 (stereo not shown) when tested with C5a receptor (Homo sapiens) stands at 47

Field inhibition at 1 µM (C5a receptor (Homo sapiens)), entry CCc1cccc(CC)c1-c1cc(OC)c2c(n1)CCCC2N1CCc2cccc(C(=O)O)c2C1 (stereo not shown) : -24

###

- TARGET OF ASSAY: C5a receptor (Homo sapiens, UniProt P21730)
- ASSAY INFO: [125I]-C5a Radioligand Binding Assay (competition binding, differentiated U937 cells)
- PROTOCOL CONDITIONS: test compound 1 μM; [125I]-C5a 0.05 nM; U937 cells; multiple values = duplicate experiments
This listing pairs compounds with measured [125I]-C5a Binding % Inhibition 1 μM.
Provide the reading as a plain figure in %.

The compound listed as CCc1cccc(CC)c1-c1cc(OC)c2c(n1)CCCC2N(C)C1CCCc2ccccc21 (stereo not shown) has a reported [125I]-C5a Binding % Inhibition 1 μM of 51

Entry `CCc1cccc(CC)c1-c1cc(OC)c2c(n1)CCC[C@@H]2N(C)[C@@H]1CCCc2ccccc21` , [125I]-C5a Binding % Inhibition 1 μM reported as 91

Looking up COc1cccc(N(C)C2CCCc3nc(-c4c(C)cccc4C)cc(OC)c32)c1C (stereo not shown) , I found its [125I]-C5a Binding % Inhibition 1 μM recorded as 86

Lab note: COc1cc(-c2c(C)cccc2C)nc2c1C(N(C)c1cccc3[nH]ccc13)CCC2 (stereo not shown) gave [125I]-C5a Binding % Inhibition 1 μM of 33

###

The following compounds are shown together with reported inhibition at 1 µM values.
- TARGET OF ASSAY: C5a receptor (Homo sapiens, UniProt P21730)
- ASSAY INFO: [125I]-C5a Radioligand Binding Assay (competition binding, differentiated U937 cells)
- PROTOCOL CONDITIONS: read-out: [125I]-C5a Binding % Inhibition 1 μM, test compound 1 μM; [125I]-C5a 0.05 nM; U937 cells; multiple values = duplicate experiments
Reply numerically in %, unit not repeated.

Previously resolved entries follow.
[[record]]
compound = "CCc1cccc(CC)c1-c1cc(OC)c2c(n1)CCCC2N(CC)c1cccc2c1CCCC2 (centres unmarked) [Compound 24]"
target_of_assay = "C5a receptor (Homo sapiens, UniProt P21730)"
result_number = 88

[[record]]
compound = "CCc1cccc(CC)c1-c1cc(OC)c2c(n1)CCCC2N(C)c1cccc2c1CCC2 (centres unmarked) [Compound 72]"
target_of_assay = "C5a receptor (Homo sapiens, UniProt P21730)"
result_number = 86

[[record]]
compound = "CCc1cccc(CC)c1-c1cc(OC)c2c(n1)CCCC2Nc1cc(OC)ccc1Cl (centres unmarked) [Compound 32]"
target_of_assay = "C5a receptor (Homo sapiens, UniProt P21730)"
result_number = 88

[[record]]
compound = "CCN(c1cccc(C)c1C)C1CCCc2nc(-c3c(C)cccc3C)cc(OC)c21 (centres unmarked) [Compound 76]"
target_of_assay = "C5a receptor (Homo sapiens, UniProt P21730)"
result_number = 83

[[record]]
compound = "CCc1cccc(CC)c1-c1cc(OC)c2c(n1)CCCC2N(C)Cc1ccccc1 (centres unmarked) [Compound 123]"
target_of_assay = "C5a receptor (Homo sapiens, UniProt P21730)"
result_number = 3


Reported inhibition at 1 µM of CCc1cccc(CC)c1-c1cc(OC)c2c(n1)CCCC2N1CCCC1 (centres unmarked) [Compound 126] : -11

get_value(item= CCc1cccc(CC)c1-c1cc(OC)c2c(n1)CCCC2Nc1ccccc1C (centres unmarked) [Compound 46] , readout=inhibition at 1 µM) returns 81

Sure, the documented inhibition at 1 µM for CCc1cccc(CC)c1-c1cc(OC)c2c(n1)CCCC2N1CCc2c(cccc2C(=O)OC)C1 (centres unmarked) [Compound 99] is 59

###

- TARGET OF ASSAY: C5a receptor (Homo sapiens, UniProt P21730)
- Sequence (P21730 1-350): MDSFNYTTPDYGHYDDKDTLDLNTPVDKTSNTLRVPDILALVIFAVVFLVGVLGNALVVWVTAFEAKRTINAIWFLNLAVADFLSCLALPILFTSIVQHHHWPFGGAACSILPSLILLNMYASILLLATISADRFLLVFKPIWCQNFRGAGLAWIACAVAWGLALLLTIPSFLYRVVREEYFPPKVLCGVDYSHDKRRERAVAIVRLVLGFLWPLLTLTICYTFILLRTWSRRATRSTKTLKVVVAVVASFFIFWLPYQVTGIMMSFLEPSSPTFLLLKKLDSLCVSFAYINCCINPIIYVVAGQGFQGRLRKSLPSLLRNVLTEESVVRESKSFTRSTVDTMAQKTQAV
- ASSAY INFO: [125I]-C5a Radioligand Binding Assay (competition binding, differentiated U937 cells)
- PROTOCOL CONDITIONS: read-out: [125I]-C5a Binding % Inhibition 1 μM, test compound 1 μM; [125I]-C5a 0.05 nM; U937 cells; multiple values = duplicate experiments
Given measured inhibition at 1 µM, output true if it is greater than or equal to 80% and false if not.

See these solved cases before continuing.
[[record]]
molecule = "CCc1cccc(CC)c1-c1cc(OC)c2c(n1)CCCC2Oc1cccc2ccccc12 (centres unmarked) [Compound 105]"
label_class = "false"

[[record]]
molecule = "CCN(c1cccc2ccccc12)C1CCCc2nc(-c3cccnc3)cc(OC)c21 (centres unmarked) [Compound 136]"
label_class = "false"

[[record]]
molecule = "CCc1cccc(CC)c1-c1cc(OC)c2c(n1)CCCC2N(C)c1ccccc1C (centres unmarked) [Compound 42]"
label_class = "true"

[[record]]
molecule = "CCN(c1cccc2ccccc12)C1CCCc2nc(-c3ccccc3C(C)C)cc(OC)c21 (centres unmarked) [Compound 57]"
label_class = "false"

[[record]]
molecule = "COc1cc(-c2c(C)cccc2C)nc2c1C(N(C)c1cc(C)ccc1C(C)C)CCC2 (centres unmarked) [Compound 110]"
label_class = "false"

[[record]]
molecule = "CCc1cccc(CC)c1-c1cc(OC)c2c(n1)CCCC2N1CCc2ccc(F)cc2C1 (centres unmarked) [Compound 45]"
label_class = "false"

[[record]]
molecule = "CCc1cccc(CC)c1-c1cc(OC)c2c(n1)CCCC2N(C)c1cc(OC)ccc1C (centres unmarked) [Compound 38]"
label_class = "true"

[[record]]
molecule = "CCc1cccc(CC)c1-c1cc(OC)c2c(n1)CCCC2N(CC)c1cccc2ccccc12 (racemic) [Compound 12]"
label_class = "true"


Consider now this further molecule.
q: # bool: inhibition at 1 µM of CCc1cccc(CC)c1-c1cc(OC)c2c(n1)CCCC2N1CCc2ccc(C(F)(F)F)cc2C1 (centres unmarked) [Compound 101] >= 80%
a: false

###

- TARGET OF ASSAY: C5a receptor (Homo sapiens)
- ASSAY INFO: [125I]-C5a Radioligand Binding Assay (competition binding, differentiated U937 cells);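 further: cells preincubated with compound 30 min at room temperature, then 60 min at 4 °C with radioligand, bound counts read by scintillation, nonspecific binding defined with 100 nM C5a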
- PROTOCOL CONDITIONS: read-out: [125I]-C5a Binding % Inhibition 10 μM, test compound 10 μM; [125I]-C5a 0.05 nM; U937 cells; multiple values = duplicate experiments
QUANTITY MEASURED: inhibition at 10 µM (%)
Reply numerically in %, unit not repeated.

[[record]]
compound = "CCc1cccc(CC)c1-c1cc(OC)c2c(n1)CCCC2N1CCc2ccccc21 (stereo not drawn) [Compound 93]"
quantity_measured = "inhibition at 10 µM"
unit_of_measurement = "%"
result_number = 80

[[record]]
compound = "CCc1cccc(CC)c1-c1cc(OC)c2c(n1)CCCC2Nc1ccc(OC)cc1C (stereo not drawn) [Compound 63]"
quantity_measured = "inhibition at 10 µM"
unit_of_measurement = "%"
result_number = 82


Moving on to the next compound.
For reference, reported inhibition at 10 µM for COc1cc(-c2c(C)cccc2C)nc2c1C(N(CC#N)c1cccc3ccccc13)CCC2 (stereo not drawn) [Compound 49] stands at 80

###

- TARGET OF ASSAY: UniProt P21730
- Sequence (P21730 1-350): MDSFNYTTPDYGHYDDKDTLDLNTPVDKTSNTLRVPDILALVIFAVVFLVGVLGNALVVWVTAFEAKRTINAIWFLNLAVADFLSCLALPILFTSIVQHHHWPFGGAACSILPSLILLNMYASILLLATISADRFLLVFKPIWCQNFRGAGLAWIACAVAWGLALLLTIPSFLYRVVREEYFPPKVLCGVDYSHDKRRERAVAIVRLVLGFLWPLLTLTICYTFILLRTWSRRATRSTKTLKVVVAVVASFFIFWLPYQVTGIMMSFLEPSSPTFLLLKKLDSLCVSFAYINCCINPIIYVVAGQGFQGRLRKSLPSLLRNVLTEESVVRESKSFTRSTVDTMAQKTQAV
- ASSAY INFO: Calcium Mobilization Assay (C5a-induced Ca2+ mobilization, FLIPR, differentiated U937 cells)
- PROTOCOL CONDITIONS: […] recombinant human C5a, 20 min pre-incubation, multiple values = duplicate experiments, read-out: C5a Induced Ca Mobil. Average IC50
pIC50: −log10 of the molar value.
The following molecules are listed with their measured pIC50 values.

[[record]]
molecule = "COc1cc(-c2c(C)cccc2C)nc2c1C(N(C)c1cc(C)ccc1C(C)C)CCC2 (stereo not drawn) [Compound 110]"
result = "< 5.00"


Given item CCN(c1cccc2ccccc12)C1CCCc2nc(-c3c(C)noc3C)cc(OC)c21 (stereo not drawn) [Compound 151] , the value recorded as its pIC50 is < 5.00

The recorded pIC50 for entry COc1ccc2cccc(N(C)C3CCCc4nc(-c5c(C)cccc5C)cc(OC)c43)c2c1 (stereo not drawn) [Compound 116] equals < 5.00
